# maps each entry to its melting point
Quantity Measured: melting point

compound_structure=CCS(=O)(=O)c1cc(-c2ccc(C(F)(F)F)cc2)ccc1C(=O)N(C)c1nnc(C(F)(F)F)s1 quantity_measured="melting point" assay_result="174 to 176 °C"
compound_structure=CCS(=O)(=O)c1cc(-c2cc(F)cc(F)c2)cnc1C(=O)Nc1nnc(C(F)(F)C(F)(F)F)s1 quantity_measured="melting point" assay_result="242 to 244 °C"
compound_structure=CCSc1cc(-c2ccc(C(F)(F)F)cc2)cnc1C(=O)Nc1nnc(C(F)(F)C(F)(F)F)s1 quantity_measured="melting point" assay_result="254 to 256 °C"
compound_structure=CCS(=O)(=O)c1cc(-c2cc(F)cc(F)c2)cnc1C(=O)N(C)c1nnc(C(F)(F)C(F)(F)F)s1 quantity_measured="melting point" assay_result="159 to 161 °C"
compound_structure=CCS(=O)(=O)c1cc(-c2cccc(Cl)c2)cnc1C(=O)N(C)c1nnc(C(F)(F)F)s1 quantity_measured="melting point" assay_result="213 to 215 °C"
compound_structure=CCSc1cc(-c2ccc(Cl)cc2)cnc1C(=O)Nc1nnc(C(F)(F)C(F)(F)F)s1 quantity_measured="melting point" assay_result="184 to 187 °C"

----------
# maps each entry to its percent control (mortality, anti-feedant effect or growth inhibition) at 12.5 ppm
- System: Spodoptera littoralis (Egyptian Cotton Leaf Worm)
- Assay Method Text: Example B2: Activity against Spodoptera littoralis, systemic via lettuce roots in agar
- Assay type: in vivo
- Condition Description: 144 h, application rate 12.5 ppm, 6 days after infestation, read-out: control in at least one of the three categories (mortality, anti-feedancy or growth inhibition)
- Description: Example B2: Activity Against Spodoptera littoralis (Egyptian Cotton Leaf Worm) Test compounds were applied by pipette from 10′000 ppm DMSO stock solutions into 24-well plates and mixed with agar. Lettuce seeds were placed on the agar and the multi well plate was closed by another plate which contains also agar. […] The samples were assessed for mortality, anti-feedant effect and growth inhibition in comparison to untreated samples 6 days after infestation.
Quantity Measured: percent control (mortality, anti-feedant effect or growth inhibition) at 12.5 ppm

compound_structure=CCS(=O)(=O)c1cc(-c2ccc(Cl)cn2)cnc1C(=O)N(C)c1nnc(C(F)(F)F)s1 assay_result="≥ 80%"
compound_structure=CCS(=O)(=O)c1cc(-c2ccc(Cl)cc2)cnc1C(=O)N(C)c1nnc(C(F)(F)C(F)(F)F)s1 assay_result="≥ 80%"
compound_structure=CCS(=O)(=O)c1cc(-c2cc(C#N)ccn2)cnc1C(=O)N(C)c1nnc(C(F)(F)F)s1 assay_result="≥ 80%"
compound_structure=CCS(=O)(=O)c1cc(-c2ccccn2)cnc1C(=O)N(C)c1nnc(C(F)(F)F)s1 assay_result="≥ 80%"
compound_structure=CCS(=O)(=O)c1cc(-c2ccc(C#N)cc2)cnc1C(=O)N(C)c1nnc(C(F)(F)F)s1 assay_result="≥ 80%"
compound_structure=CCS(=O)(=O)c1cc(-c2ccc(F)cc2)cnc1C(=O)N(C)c1nnc(C(F)(F)F)s1 assay_result="≥ 80%"
compound_structure=CCS(=O)(=O)c1cc(-c2cc(F)cc(F)c2)cnc1C(=O)N(C)c1nnc(C(F)(F)F)s1 assay_result="≥ 80%"
